We begin with a simple list: items and their reported EC50.
target: human TLR3 extracellular domain (amino acids 1-703) with C-terminal poly-histidine tag (human); test: ELISA, coated huTLR3 ECD
Numeric only. Scale: µg/mL

Reference set (2 entries):
Per the record, mAb 5 (antibody, V domains shown) VH: QVELQQSGPGLVKPSQTLSLTCAISGDSVSTRSAAWGWIRQSPGRGLEWLGRIYMRSKWYNDYAVSVKSRITINPDTSKNQFSLQLNSVTPEDTAVYYCARHTYPYLSFDVWGQGTLVTVSS VL: DIELTQPPSVSVAPGQTARISCSGDALGGYFVSWYQQKPGQAPVLVIYDDDNRPSGIPERFSGSNSGNTATLTISGTQAEDEADYYCQSYDEDSATVFGGGTKLTVL has EC50 of 0.0199

Per the record, mAb 16 (antibody, V domains shown) VH: QVELVQSGAEVKKPGESLKISCKGSGYSFNNYWIGWVRQMPGKGLEWMGIIDPGDSYTNYAPSFQGQVTISADKSISTAYLQWSSLKASDTAMYYCARNIYEFDYWGQGTLVTVSS VL: DIQMTQSPSSLSASVGDRVTITCRASQGISSWLNWYQQKPGKAPKLLIYGASNLQSGVPSRFSGSGSGTDFTLTISSLQPEDFAVYYCQQYDDFSITFGQGTKVEIK has EC50 of 0.0437

Now, please, on to the next binder.
Per the record, mAb 17 (antibody, V domains shown) VH: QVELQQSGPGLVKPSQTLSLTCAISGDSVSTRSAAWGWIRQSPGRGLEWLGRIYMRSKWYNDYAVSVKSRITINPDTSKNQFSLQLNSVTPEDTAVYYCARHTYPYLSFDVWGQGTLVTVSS VL: DIELTQPPSVSVAPGQTARISCSGDALGGYFVSWYQQKPGQAPVLVIYDDDNRPSGIPERFSGSNSGNTATLTISGTQAEDEADYYCASYDGDEFTVFGGGTKLTVL has EC50 of 0.0138
